System: MYB mRNA
Assay: RT-qPCR splicing assay, MYB canonical junction (CJ) and alternative junction (AJ) mRNA
Assay type: cell-based, human
Conditions: Homo sapiens; decrease in MYB canonical junction (CJ) mRNA, RT-qPCR; read-out: MYB CJ IC50
metric name: IC50

Past entries and their recorded results:
Cc1cn2cc(-c3cc(F)c4c(=O)n(C5CCNCC5(F)F)cnc4c3)cc(F)c2n1 (centres unmarked) = 1000 to 10000 nM
Cc1cn2cc(-c3cc(F)c4c(=O)n(C5CCNCC5)ccc4c3)cc(F)c2n1 = < 100 nM
CNc1cc(-c2cc(C)c3nc(C)cn3n2)cc2ncn(C3CCNCC3)c(=O)c12 = 1000 to 10000 nM
Cc1cn2nc(-c3ccc4c(=O)n(C56CCC(N)(CC5)C6)ccc4n3)cc(C)c2n1 = < 100 nM
Cc1cn2cc(-c3ncc4c(=O)n(C56CCC(N)(CC5)C6)ccc4n3)cc(F)c2n1 = 100 to 1000 nM
Cc1cn2nc(-c3cc(F)c4c(=O)n(C5CCN(C)CC5)cnc4c3)cc(C)c2n1 = < 100 nM
Cc1c(O)c(-c2ncc3c(=O)n([C@H]4CCNC(C)(C)C4)ccc3n2)cc2cn(C)nc12 = < 100 nM

Shifting focus to the compound that follows.
Input line: Tell me the measured IC50 of Cc1c(O)c(-c2ccc3c(=O)n([C@H]4CC[C@H](N(C)C)CC4)ccc3n2)cc2cn(C)nc12 , please.
Output line: < 100 nM

* * *

System: HTT
Test: HiBiT protein abundance assay, HTT HiBiT K562 cell line
Type: cell-based, human
Details: HiBiT K562 cell line, 24 hours, top dose 10 μM; read-out: Effect on protein abundance, HTT (IC50 category)
pIC50: −log10 of the molar value.
metric name: pIC50

Cc1cn2cc(-c3cc(F)c4c(=O)n(C5CCOC5)cnc4c3)cc(C#N)c2n1 (stereo in doubt) [Compound 499] = 6.00 to 7.00
Cc1cn2nc(-c3ccc4c(=O)n([C@H]5CCNC6(CC6)C5)ncc4c3)cc(C)c2n1 = 6.00 to 7.00
Cc1cn2nc(-c3ccc4c(=O)n([C@@H]5CCN[C@H](C)C5)ncc4c3)cc(C)c2n1 = > 7.00
Cn1cc2cc(-c3ccc4c(=O)n(C5CCNCC5)ccc4n3)c(O)cc2n1 = > 7.00
Cc1cn2nc(-c3ccc4c(=O)n([C@H]5CCNC[C@H]5F)cnc4c3)cc(C)c2n1 = 6.00 to 7.00
Cc1cn2nc(-c3ccc4c(c3)CCN(C3CCN(C)CC3)C4=O)cc(C)c2n1 = 5.00 to 6.00

Input line: Tell me the measured pIC50 of Cc1cn2nc(-c3cc(F)c4c(=O)n([C@@H]5CCNC6(CC6)C5)ncc4c3)cc(C)c2n1 , please.
Output line: > 7.00

Input line: Tell me the measured pIC50 of Cc1cn2nc(-c3cc4ccn([C@@H]5CCNC5)c(=O)c4cc3O)cc(C)c2n1 , please.
Output line: 5.00 to 6.00

* * *

Tested on: MYB mRNA
Test: RT-qPCR splicing assay, MYB canonical junction (CJ) and alternative junction (AJ) mRNA
Type: cell-based, human
Conditions: Homo sapiens; canonical junction qPCR panel, Table 5; read-out: MYB (decrease in CJ mRNA levels, IC50)
Each record here notes measured IC50.

Cn1cc2nc(-c3ccc4c(=O)n(C5CCNCC5)ccc4n3)c(O)cc2n1 [Compound 1296] = < 100 nM
Cc1c(O)c(-c2ccc3c(=O)n([C@H]4CCN[C@@H](C)C4)ccc3n2)cc2cn(C)nc12 [Compound 1520] = < 100 nM
C[C@H]1C[C@@H](n2ccc3nc(-c4cc(F)c5nn(C)cc5c4)ncc3c2=O)CCN1 [Compound 1503] = 100 to 1000 nM

Shifting focus to the compound that follows.
Input line: Tell me the measured IC50 of Cc1cn2cc(-c3ncc4c(=O)n([C@@H]5CCN[C@@H](C)C5)ccc4n3)cc(F)c2n1 [Compound 1498] , please.
Output line: 100 to 1000 nM

* * *

Each record here notes measured pIC50.
System: HTT mRNA
Test: RT-qPCR splicing assay, HTT canonical junction (CJ) and alternative junction (AJ) mRNA
Type: cell-based, human
Settings: Homo sapiens; canonical junction qPCR panel, Table 5; read-out: HTT (decrease in CJ mRNA levels, IC50)
pIC50: −log10 of the molar value.

Cc1cn2cc(-c3nc(C)c4c(=O)n(C5CCNCC5)ccc4n3)cc(F)c2n1 = 6.00 to 7.00
Cn1cc2cc(-c3ccc4c(=O)n([C@H]5CCNC5)ccc4n3)c(O)c(F)c2n1 = 6.00 to 7.00
Cc1cn2nc(-c3ccc4c(=O)n(C5CCNC6(CC6)C5)ncc4n3)cc2c(C)n1 (centres unmarked) = 6.00 to 7.00

Input line: Tell me the measured pIC50 of Cc1c(O)c(-c2ncc3c(=O)n([C@H]4C[C@H](N)C4)ccc3n2)cc2cn(C)nc12 , please.
Output line: 5.00 to 6.00

Input line: Tell me the measured pIC50 of Cc1cc(-c2ccc3c(=O)[nH]c(N4CCNCC4)nc3c2)cc2cn(C)nc12 , please.
Output line: < 5.00

* * *

Test system: MYB mRNA
Assay: RT-qPCR splicing assay, MYB canonical junction (CJ) and alternative junction (AJ) mRNA
Type: cell-based, human
Conditions: Homo sapiens; Table 5 panel; canonical junction qPCR; compound concentration having 50% response in CJ decrease; read-out: MYB IC50 (decrease in CJ mRNA levels)
pIC50: −log10 of the molar value.
metric name: pIC50

Cc1cn2cc(-c3ccc4c(=O)n(C5CCNC5)cc(C)c4c3)cc(C#N)c2n1 (centres unmarked) = < 5.00
CN1CC=C(c2ccc3c(=O)n(-c4ccc5nn(C)cc5c4)cnc3c2)CC1 = < 5.00
COC(=O)c1cc(-c2ccc3c(=O)n(C4CCNCC4)ccc3c2)nn2cc(C)nc12 = 6.00 to 7.00
Cc1cn2nc(-c3ccc4c(c3)CCN([C@@H]3CCN[C@H](C)C3)C4=O)cc(C)c2n1 = 5.00 to 6.00

Input line: Tell me the measured pIC50 of Cc1cc(-c2ccc3c(=O)n(C4CCN(C)CC4)cnc3n2)cc2cn(C)nc12 , please.
Output line: < 5.00

Input line: Tell me the measured pIC50 of Cc1cn2nc(-c3ccc4c(=O)n(C5CCN(C)CC5)ncc4c3)cc(C)c2n1 , please.
Output line: 6.00 to 7.00

Input line: Tell me the measured pIC50 of Cc1cn2nc(-c3ccc4c(=O)n(C5CCNC6(CC6)C5)ccc4c3)cc(C)c2n1 (centres unmarked) , please.
Output line: > 7.00

Input line: Tell me the measured pIC50 of Cc1cn2cc(-c3cc(F)c4c(=O)n(C5CCNC6(CC6)C5)ccc4c3)cc(F)c2n1 (centres unmarked) , please.
Output line: < 5.00

* * *

System: MYB mRNA
Assay: RT-qPCR splicing assay, MYB canonical junction (CJ) and alternative junction (AJ) mRNA
Type: cell-based, human
Conditions: Homo sapiens; Table 5 panel; canonical junction qPCR; compound concentration having 50% response in CJ decrease; read-out: MYB IC50 (decrease in CJ mRNA levels)
pIC50: −log10 of the molar value.
metric name: pIC50

Past entries and their recorded results:
Cc1cc(-c2ccc3nc(NC4CCN(C)CC4)[nH]c(=O)c3c2)cc2cn(C)nc12 = < 5.00
Cc1cn2nc(-c3cc(F)c4c(=O)n([C@@H]5CCNC6(CC6)C5)ncc4c3)cc(C)c2n1 = > 7.00
Cc1cn2nc(-c3ccc4c(c3)CCN(C3CCN(C)CC3)C4=O)cc(C)c2n1 = 5.00 to 6.00
Cc1cn2cc(-c3cc(F)c4c(=O)n(C5CCOC5)cnc4c3)cc(C#N)c2n1 (stereo in doubt) [Compound 500] = 6.00 to 7.00
Cc1cn2cc(-c3ccc4c(=O)n(C5CCNCC5)ncc4c3)c(C)cc2n1 = 5.00 to 6.00

Shifting focus to the compound that follows.
Input line: Tell me the measured pIC50 of CCN1CCC(n2ccc3cc(-c4cc(C)c5nc(C)cn5n4)ccc3c2=O)CC1 , please.
Output line: > 7.00

* * *

Each record here notes measured IC50.
System: MYB mRNA
Assay: RT-qPCR splicing assay, MYB canonical junction (CJ) and alternative junction (AJ) mRNA
Assay type: cell-based, human
Conditions: Homo sapiens; decrease in MYB canonical junction (CJ) mRNA, RT-qPCR; read-out: MYB CJ IC50

Past entries and their recorded results:
Cn1cc2cc(-c3ccc4c(=O)n([C@@H]5CCNC6(CC6)C5)ccc4n3)c(O)cc2n1 = < 100 nM
Cc1cn2cc(-c3cc(F)c4c(=O)n(C5CCNC6(CC6)C5)ccc4c3)cc(Cl)c2n1 (centres unmarked) = < 100 nM
Cc1cn2cc(-c3ccc4c(=O)n(C5CCNCC5)ncc4c3)cc(C(F)(F)F)c2n1 = 100 to 1000 nM
Cc1cn2cc(-c3ccc4c(c3)CCN(C3CCNCC3)C4=O)cc(C)c2n1 = 1000 to 10000 nM
Cc1nc2c(F)cc(-c3ccc4c(=O)n(C5CCNCC5)ncc4c3)cc2s1 = 1000 to 10000 nM
Cc1cn2cc(-c3ccc4c(=O)n(C5CCNCC5)ncc4c3)cc(C)c2n1 = 100 to 1000 nM
Cc1cn2cc(-c3cc(C)c4c(=O)n(C5CCNCC5)ccc4n3)cc(F)c2n1 = < 100 nM
C[C@H]1C[C@@H](n2ccc3nc(-c4cc(F)c5nn(C)cc5c4)ccc3c2=O)CCN1 = 100 to 1000 nM
Cn1cc2nc(-c3ccc4c(=O)n(C5CCNC6(CC6)C5)ncc4c3)ccc2n1 (centres unmarked) = 100 to 1000 nM
Cc1cn2cc(-c3ccc4c(=O)n(C5CCNCC5)cnc4c3F)cc(F)c2n1 = 1000 to 10000 nM

Shifting focus to the compound that follows.
Input line: Tell me the measured IC50 of Cc1cn2nc(-c3ccc4c(=O)n(C5CCN(C)CC5)cnc4c3)cc2c(C)n1 , please.
Output line: 1000 to 10000 nM
